Where do these numbers come from? They come from PubChem BioAssay.

Tested on: Wnt5a (protein binding on small-molecule microarray)
protocol: Wnt5a binders on small-molecule microarray, primary screen, biophysical, 635/667 nm fluorescence (AID 1142);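 note: fluorescence read at 667 nm with signal to noise per printed feature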
testSettings: 635 nm fluorescence, higher = more signal
quantityMeasured: composite z-score

• O=C(NCC(O)CO)[C@@]1(CCS(=O)(=O)c2ccccc2)COC(c2ccc(OCCCO)cc2)=N1 (stereo partly drawn) = 0.556
• COc1ccc([Si](C)(C)[C@H]2[C@H](CC(=O)N3CCC[C@H]3CO)O[C@@]3(C(=O)N(Cc4ccc(N5CCC5=O)cc4)c4ccccc43)[C@@H]2C)cc1 = 0.699
• CN(C)C(=O)[C@@]1(Cc2ccccc2)COC(c2ccc(OCCCO)cc2)=N1 = -0.243
• COCC1=C2[C@@H](CCc3ccccc3)OB(O)C[C@@H]2[C@@H]2C(=O)N(C)C(=O)[C@@H]2C1 = -0.16
• CC(C)CNC(=O)[C@@]1(c2ccc([N+](=O)[O-])cc2)CC(=O)N(C2CCCCC2)[C@@H]1c1ccc(CO)cc1 = 0.335
• O=c1cccc(-c2ccc(F)cc2)o1 = 0.0405
• Cc1cccc([C@H]2C[C@H]3C(I)=C[C@@H]2C(=O)[C@]32CO2)c1 = -0.243
• COCCOC(=O)N1C(=O)[C@@]2(c3cc(C#CCC(C(=O)OC)C(=O)OC)ccc31)[C@H](C(=O)NC[C@H](O)c1ccccc1)[C@H]1C(=O)O[C@H](c3ccccc3)[C@H](c3ccccc3)N1[C@@H]2c1ccc(OCCO)cc1 = -0.157
• CCOC(=O)C[C@H]1[C@H](OC(=O)c2ccccc2-c2ccccc2)[C@@H](NC(=O)c2ccc3ccccc3n2)c2cc(OCCCO)ccc2N1C(=O)c1ccccc1 = 0.233
• CCCNC(=O)[C@@]1(C)c2ccccc2C(=O)N(Cc2ccccc2)[C@H]1c1ccc(CO)cc1 = -0.15
• COCCCNC(=O)[C@@H]1c2ccccc2C(=O)N(C2Cc3ccccc3C2)[C@H]1c1ccc(CO)cc1 = -0.0499
• COC(=O)[C@@]1(Cc2ccc(OC)cc2)[C@H]2c3cc(C(=O)N4CCCC4)n(Cc4ccc(OC(F)(F)F)cc4)c3C[C@H]2CN1C(=O)c1ccccc1 = 0.622
• [N-]=[N+]=Nc1ccccc1C[C@@]1(C(=O)O)N=C(c2ccc(OCCCO)cc2)O[C@@H]1c1ccccc1N=[N+]=[N-] = -0.166
• O=C1C[C@@](C(=O)NCC(F)(F)F)(c2ccc([N+](=O)[O-])cc2)[C@@H](c2ccc(CO)cc2)N1CC12CC3CC(CC(C3)C1)C2 = 0.988
• O=C1OCCC=C[C@H]2OC34C=CCN(c5ccc(Cl)cc5)C(=O)[C@H]3N(CCCCCCO)C(=O)[C@@H]4C12 (stereo partly drawn) = -0.365
• NC(=O)[C@H]1[C@@H]2C(=O)O[C@@H](c3ccccc3)[C@@H](c3ccccc3)N2[C@@H](c2ccc(O)cc2)[C@]12C(=O)Nc1ccccc12 = -0.355
• CC(=O)N1CC(C(O)C2C=CC3C(=O)NC(=O)C3N2Nc2ccc(Cl)cc2Cl)c2ccccc21 (stereo not drawn) = -0.0061
• COCCOC(=O)N1C(=O)[C@@]2(c3cc(C#CC4(O)CCCCCC4)ccc31)[C@H](c1ccc(OCCO)cc1)N1[C@H](c3ccccc3)[C@H](c3ccccc3)OC(=O)[C@H]1[C@@H]2C(=O)Nc1nc2ccccc2s1 = 0.544
• O=C1[C@@H]2[C@@H](CC(COc3ccccc3)=C3[C@@H](CCc4ccccc4)OB(O)C[C@@H]32)C(=O)N1Cc1ccccc1 = -0.0294
• Cc1ccccc1C(O)C1C=CC2C(=O)N(c3ccccc3)C(=O)C2N1Nc1ccc([N+](=O)[O-])cc1 (stereo not drawn) = -0.0078
• CC(C)CCC[C@@H](C)[C@H]1CC[C@@]2(C)C3=C(CC[C@]12C)[C@@]1(C)CC[C@H](OC(=O)c2ccccc2)C(C)(C)C1CC3 (stereo partly drawn) = 0.0964
• O=C1C2C=CC(C(O)c3cc(C(F)(F)F)cc(C(F)(F)F)c3)N(Nc3ccccc3F)C2C(=O)N1c1ccccc1 (stereo not drawn) = 0.17
• COC(=O)[C@@]1(Cc2ccc(OC)cc2)[C@H]2c3cc(C(=O)N4CCCC4)n(Cc4cc(C)n(C)n4)c3C[C@H]2CN1C(=O)c1ccccc1 = 0.973
• C=CCN1C(=O)[C@]2(O[C@H](CCO)[C@@H]([Si](C)(C)c3ccc(OC)cc3)[C@@H]2C)c2cc(N3C(=O)COc4ccccc43)ccc21 = 0.01
• COCCOC(=O)N1C(=O)[C@@]2(c3cc(C#CCCO)ccc31)[C@H](C(=O)N1CCCCCCC1)[C@H]1C(=O)O[C@H](c3ccccc3)[C@H](c3ccccc3)N1[C@@H]2c1ccccc1OCCO = 0.985
• C=C[C@@H](C)[C@H](O)c1ccc(OCCO)cc1 = -0.872
• COC(=O)c1c2oc(c1C(=O)OC)C(=O)N1CCC[C@H]1Cn1nncc1CN(Cc1ccccc1)C(=O)N[C@H](CO)CC2 = 0.533
• COC(=O)[C@@]1(Cc2ccc(F)cc2)[C@H]2c3cc(C(=O)N4CCCC4)n(CC4CC4)c3C[C@H]2CN1C(=O)c1ccccc1 = 0.0479

====

protocol: binders from COS7 lysate, DM2A8 probe, primary screen, torsin A project, cell lysate, small-molecule microarray, fluorescence 635/667 (AID 1065)
testSettings: higher = more signal, COS7 lysate expressing mutant human TOR1A
Lab note: compare composite z-score against 0.003. Equal or greater, write criterion met. Smaller, write criterion not met.

* CO[C@H]1O[C@H](CO)[C@@H](OC(=O)c2ccc(Br)cc2)[C@@H]2OC(=O)[C@H](Cc3ccccc3)C/C=C/C[C@@H](Cc3ccccc3)C(=O)O[C@@H]12 | criterion met
* CCOC(=O)C1=C[C@@H](c2ccccc2)N(S(=O)(=O)c2ccc(C)cc2)[C@H]1c1ccccc1 | criterion not met
* C=C(/C(=C/C[C@@H](OC(C)=O)c1ccc(CO)o1)c1cc(C(=O)OC)ccc1OC)C(C)C | criterion not met
* Cc1cccc([C@H]2C[C@H]3C(Br)=C[C@@H]2C(=O)[C@]32CO2)c1 | criterion met
* CN(C)CCCC[C@@H]1NC(=O)[C@@H]2C[C@H](C(=O)O)[C@H](c3cccc(OCCO)c3)N2C1=O | criterion not met
* COC(=O)[C@@]1(Cc2ccccc2)[C@H]2c3cc(C(=O)N(C)C)n(CCn4cc([N+](=O)[O-])nc4C)c3C[C@H]2CN1C(=O)c1ccccc1 | criterion met
* O=c1cccc(-c2ccc(F)cc2)o1 | criterion not met
* COCCOC(=O)N1C(=O)[C@@]2(c3cc(C#CCNC(N)=O)ccc31)[C@H](c1ccc(OCCO)cc1)N1[C@H](c3ccccc3)[C@H](c3ccccc3)OC(=O)[C@H]1[C@@H]2C(=O)NC[C@H](O)c1ccccc1 | criterion met
* [N-]=[N+]=Nc1ccccc1C[C@]1(C(=O)O)N=C(c2ccc(OCCCO)cc2)O[C@H]1c1ccccc1 | criterion met
* O=C1C2C=CC(C(O)c3cccc(O)c3)N(Nc3ccccc3)C2C(=O)N1c1ccccc1 (stereo unspecified) | criterion not met
* Cc1c(NC(=O)/C(C#N)=C/c2ccccc2Cl)c(=O)n(-c2ccccc2)n1C | criterion met
* COC(=O)[C@@]1(Cc2ccc(F)cc2)[C@H]2c3cc(C(=O)N(C)C)n(Cc4ccc(O)c(OC)c4)c3C[C@H]2CN1C(=O)c1ccccc1 | criterion met
* O=C1N[C@@H](Cc2ccccc2)C(=O)N2[C@@H]1C[C@@H](C(=O)O)[C@H]2c1ccc(O)cc1 | criterion met
* CCOC(=O)C[C@H]1[C@H](OC(=O)c2ccccc2-c2ccccc2)[C@@H](NC(=O)c2ccccc2)c2cc(OCCCO)ccc2N1C(=O)c1ccccc1 | criterion met
* [N-]=[N+]=NCc1ccccc1[C@@H]1OC(c2ccc(OCCCO)cc2)=N[C@]1(Cc1ccccc1)C(=O)NCCN1CCOCC1 | criterion not met
* CCOC(=O)C1=CCN(S(=O)(=O)c2ccc(C)cc2)C1c1ccccc1 (stereo unspecified) | criterion met

====

assayedTarget: Concanavalin-A (Canavalia ensiformis)
protocol: ConA small-molecule binders, primary screen, artefact control for SMM control protein annotation, biochemical, small-molecule microarray, Alexa647 label, 635 nm (AID 1127);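 note: z combines 667 nm emission intensity with signal-to-noise across three replicate slides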
testSettings: ConA-A647 binding fluorescence, higher = more signal
Decide using composite z-score: a value greater than or equal to 0.2 is 1.0, a smaller one is 0.0.

• CC(C)N1CC=CC23O[C@@H]4/C=C\CCCOC(=O)C4[C@H]2C(=O)N(CCCCCCO)[C@@H]3C1=O (some centres undefined) = 0.0
• C=C(C)[C@@H]1CC=C(C(O)C2C=CC3C(=O)N(c4ccccc4)C(=O)C3N2Nc2ccc(C#N)cc2)CC1 (some centres undefined) = 1.0
• O=C1OCC=C[C@H]2OC34C=CCN(c5ccc6ccccc6c5)C(=O)[C@H]3N(CCCCCO)C(=O)[C@@H]4[C@@H]12 (some centres undefined) = 0.0
• CCCCC(=C=CC[C@H](O)c1ccc(OCCO)cc1)C[C@H](O)COCc1ccccc1 = 0.0
• O=C(NCCN1CCOCC1)[C@@H]1c2ccccc2C(=O)N(Cc2ccccc2)[C@H]1c1ccc(CO)cc1 = 1.0
• CC(C)C(=C=CC[C@@H](O)c1cccc(OCCO)c1)C[C@@H](O)COCc1ccccc1 = 1.0
• COCCOC(=O)N1C(=O)[C@@]2(c3cc(C#Cc4ccc(OC)cc4)ccc31)[C@H](C(=O)NC[C@H](O)c1ccccc1)[C@H]1C(=O)O[C@H](c3ccccc3)[C@H](c3ccccc3)N1[C@@H]2c1ccc(OCCO)cc1 = 1.0
• CCN(CC)c1ccc(N2CC=CC34O[C@@H]5C=CCCOC(=O)C5[C@H]3C(=O)N(CCO)[C@@H]4C2=O)cc1 (some centres undefined) = 0.0
• CS(=O)(=O)CCOC(=O)C1=CC(CCCO)=CC(C2CC2)N(Cc2cccc(OC(F)(F)F)c2)C=C1C(=O)OCCS(C)(=O)=O (centres undefined) = 1.0
• COc1ccc(C#Cc2ccc3c(c2)[C@]2(C(=O)N3)[C@H](C(=O)N3CCCCCCC3)[C@H]3C(=O)O[C@H](c4ccccc4)[C@H](c4ccccc4)N3[C@@H]2c2ccc(O)cc2)cc1 = 1.0
• COC(=O)[C@@]1(Cc2ccc(F)cc2)[C@H]2c3cc(C(=O)N(C)C)n(Cc4c(CO)[nH]cc(C)c4=O)c3C[C@H]2CN1C(=O)c1ccccc1 = 0.0
• C=CCC(OC(C)=O)[C@@H]1[C@@H](N(Cc2cccc3ccccc23)C(=O)c2cccc3ccccc23)c2cc(OCCCO)ccc2N1C(=O)c1ccc2ccccc2c1 (some centres undefined) = 0.0
• COc1cccc(/C=C(\C#N)C(=O)Nc2c(C)n(C)n(-c3ccccc3)c2=O)c1 = 1.0
• [N-]=[N+]=Nc1ccccc1C[C@]1(C(=O)O)N=C(c2ccc(OCCCO)cc2)O[C@H]1c1ccccc1N=[N+]=[N-] = 1.0
